- assayedSystem: T1, human Trop-2 (on the surface of human cell lines) (human, UniProt P09758 27-323)
- T1 construct: Endogenous Trop-2 on NCI-H322, Capan-1, PC-3, HUVEC, OVCAR-3, HCC38 and HCC1806 cells; also called TACSTD2
- T1 sequence: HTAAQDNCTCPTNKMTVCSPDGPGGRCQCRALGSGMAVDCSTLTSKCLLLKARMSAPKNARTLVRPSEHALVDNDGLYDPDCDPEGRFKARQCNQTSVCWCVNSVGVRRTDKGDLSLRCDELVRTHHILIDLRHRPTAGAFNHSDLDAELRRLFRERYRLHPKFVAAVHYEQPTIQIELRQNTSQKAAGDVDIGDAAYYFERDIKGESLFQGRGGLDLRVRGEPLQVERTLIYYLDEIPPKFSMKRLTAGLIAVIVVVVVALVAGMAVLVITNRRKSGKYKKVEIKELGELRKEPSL
- measurementProtocol: flow cytometry, HCC38 cells
propertyName: EC50
Include the unit right after the number.

Inquiry: Item hz-Ab35-2.3 (antibody, human IgG1, kappa, V domains shown, Humanized antibody) VH: QVQLVQSGAEVKKPGASVKVSCKASGYTFTSSDINWVRQRPGQGLEWMGWIYPRDGSKKYNEKFKGRVTMTVDTSTSTVYMELSSLRSEDTAVYYCATRFATVVSNYGLDPWGQGTLVTVSS VL: EIVLTQSPATLSLSPGERATLSCSASSSVNYIYWYQRKPGQAPRLLIYDTSNLASGIPARFSGSGSGTDYTLTISSLEPEDFAVYYCQQWNSYPLTFGQGTKVEIKR has what recorded EC50?
Reply text: 0.91 nM

Inquiry: Look up EC50 for this binder: hz-Ab2-2.4 (antibody, human IgG1, kappa, V domains shown, Humanized antibody) VH: QVQLQESGPGLVKPSETLSLTCTVSGFSLTYYGIDWIRQPPGKGLEWIGVIWGSGNTKYNSALKSRVTISKDNSKSQVYLKLSSVTAADTAVYYCARFYEGFAYWGQGTLVTVSS VL: DIQMTQSPSSLSASVGDRVTITCRASQDINSYLSWFQQKPGKAPKTLIYRANRLVEGVPSRFSGSGSGQDFTLTISSLQPEDFATYYCLQYDEYPLTFGQGTKVEIKR
Reply text: 0.45 nM

Inquiry: Reported EC50, binder hz-Ab2-1.2 (antibody, human IgG1, kappa, V domains shown, Humanized antibody) VH: EVQLVESGPGLIQPGGSLRLSCAVSGFSLTYYGIDWVRQPPGKGLEWVGVIWGSGNTKYNYALKSRLTISKDNSKSTLYLQMNSLRAEDTAVYYCARFYEGFAYWGQGTLVTVSS VL: DIQMTQSPSSLSASVGDRVTITCKASQDINSYLSWFQQKPGKAPKTLIYRANRLVEGVPSRFSGSGSGQDYTLTISSLQPEDFATYYCLQYDEFPLTFGQGTKVEIKR : ____
Reply text: 0.76 nM
